- assay text: chemical genetic growth profiling, strain panel (AID 1159580);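 further: tested at 20 µM; growth read once vehicle control cultures reached saturation at 30 °C; 1 = growth at the plate median or of vehicle wells; lower values mean less growth of the strain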
- measurement conditions: S. cerevisiae deletion strains, growth OD, locus YJL134W, strain LCB3, stronger effect = lower value
In all, about 5,500 compounds went through this assay and about 2,000 (36%) were called active. About 18% were inconclusive and are not listed. The list shows a part of the results.
reported endpoint: normalized growth
Write the number on its own, no unit after it.

## Input What value of normalized growth has been reported for the following compound? NCC(O)c1ccc(O)cc1 (stereo not drawn)
## Output 0.995

## Input Can you look up the measured normalized growth of CC1(C)C(C(Cl)Cl)C2(Cl)C(Cl)C(Cl)C1(Cl)C2(Cl)Cl (stereo not drawn) for me?
## Output 0.986

## Input State the recorded normalized growth for this entry: CC1(C)C(=O)C=CC2(C)C3CCC4(C)C(c5ccoc5)CC5OC54C3C(O)CC12 (stereo not drawn)
## Output 0.992

## Input Give the measured normalized growth of CNC[C@@H](O)c1ccc(O)c(O)c1 .
## Output 0.993

## Input What value of normalized growth has been recorded for this entry: O=C(O)CF
## Output 0.986

## Input Which value of normalized growth has been reported for CN[C@H](CC(=O)O)C(=O)O in the records?
## Output 0.993

## Input Given the entry COC(C)(C)CCC[C@H](C)C/C=C/C(C)=C/C(=O)OC(C)C , report its measured normalized growth.
## Output 1

## Input # lookup: normalized growth of CC(C)NCC(O)c1ccc(O)c(O)c1 (stereo not drawn)
## Output 1.02

## Input May I ask what normalized growth has been recorded for O=C(O)CCC(=O)C(=O)O ?
## Output 1

## Input Please give the measured normalized growth for this compound: CC(=O)O[C@@H]1C[C@@]2(C)[C@H](c3ccoc3)C[C@H]3O[C@]32[C@]2(C)C(=O)C(O)=C3C(C)(C)C(=O)C=C[C@]3(C)C12 (stereo partly drawn)
## Output 0.958

## Input What does the data say about its normalized growth? Entry: NCCNC(=O)c1ccc(Cl)cc1
## Output 0.991

## Input Give the measured normalized growth of O=[N+]([O-])c1cc([As](=O)(O)O)ccc1O .
## Output 0.991

## Input // query normalized growth value for entry COc1ccccc1OCCNCC(O)COc1cccc2[nH]c3ccccc3c12 (stereo not drawn)
## Output 1

## Input Consider the compound shown here: CCC(Cc1c(I)cc(I)c(N)c1I)C(=O)O (stereo not drawn) What is its recorded normalized growth?
## Output 1

## Input What normalized growth value was documented for this compound, C[n+]1cccc(C(=O)[O-])c1 ?
## Output 1.01

## Input What measured normalized growth goes with CC(=O)O[C@@H]1CC2C(C)(C)C=CC(=O)[C@]2(C)C2CC[C@@]3(C)[C@H](c4ccoc4)OC(=O)C4OC43[C@@]21C (stereo partly drawn) ?
## Output 1.01

## Input For the compound shown here, O=C(O)/C=C/C=C/c1ccccc1 , give the reported normalized growth.
## Output 0.975

## Input Need normalized growth of NC[C@H](O)c1ccc(O)c(O)c1 , thanks.
## Output 1.01

The measurements presented in this section are drawn from PubChem BioAssay AID1159580.
